Tested on: SW 1271 complex spheroids, viability
Assay: Anticancer human tumor SW 1271 cell line growth inhibition [LSD1];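 note: spheroids exposed to agents for 7 days before luminescence read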
Conditions: second compound 0.1 µM; first compound 0.316 µM; stronger effect = lower value
Source text: Multicellular complex tumor spheroid response to LSD1 Inhibitor Iadademstat in combination with a variety of drugs and investigational agents in selected tumor cell lines The current study was undertaken to assess response to LSD1 inhibitors in combination with standard-of-care drugs and investigational agents in solid tumor complex spheroid models as well as in the K-562 leukemia. […] Compounds. […] If the clinical Cmax for an agent had not been determined, the highest concentration tested was 10 microM. […]
The label is yes for viability, T/C below 70% and no for viability, T/C equal to or exceeding 70%.

MOLECULE: O=C(C=Cn1cnc(-c2cc(C(F)(F)F)cc(C(F)(F)F)c2)n1)NNc1cnccn1 + NC1CCC(NC2CC2c2ccccc2)CC1
GROUP_LABEL: yes
//
MOLECULE: O=C(c1cc(Cc2n[nH]c(=O)c3ccccc23)ccc1F)N1CCN(C(=O)C2CC2)CC1 + NC1CCC(NC2CC2c2ccccc2)CC1
GROUP_LABEL: no
//
MOLECULE: CC(C)c1c(-c2ccccc2)nc2c(C#N)c[nH]n2c1=O + NC1CC1c1ccc(-c2cccc(O)c2)cc1
GROUP_LABEL: no
//
MOLECULE: COc1ccc([C@@H](O)c2cc(-c3ncnc4cc(N5CCOCC5)ccc34)c(F)cc2Cl)nn1 + NC1CCC(NC2CC2c2ccccc2)CC1
GROUP_LABEL: yes
//
MOLECULE: Nc1ncn(C2CC(O)C(CO)O2)c(=O)n1 (stereo not drawn) + NC1CC1c1ccc(-c2cccc(O)c2)cc1
GROUP_LABEL: yes
//
MOLECULE: CC1COCCN1c1cc(-c2ccnn2C)c2ccnc(-c3ccn[nH]3)c2n1 (stereo not drawn) + NC1CCC(NC2CC2c2ccccc2)CC1
GROUP_LABEL: yes
//
MOLECULE: O=C(C=Cn1cnc(-c2cc(C(F)(F)F)cc(C(F)(F)F)c2)n1)NNc1cnccn1 + NC1CC1c1ccc(-c2cccc(O)c2)cc1
GROUP_LABEL: yes
//
MOLECULE: Nc1ncn(C2CC(O)C(CO)O2)c(=O)n1 (stereo not drawn) + NC1CCC(NC2CC2c2ccccc2)CC1
GROUP_LABEL: no
